From: patent US5053070A

system: ALS (acetolactate syntase); experiment: ALS enzyme assay (Test 1); assay type: biochemical, pea; conditions: 1,000 ppm (0.5 mg/0.5 ml)
observable: Inhibitory activity (%) Pea
Enter your answer as a number in %; do not include the unit.

COc1cc(OC)nc(Oc2ccccc2C=NO)n1 | 0
COc1cc(OC)nc(Oc2ccccc2C=NOCC=Cc2ccc(C)cc2)n1 | 0
C=CC(C)ON=Cc1ccccc1Oc1nc(OC)cc(OC)n1 (centres unmarked) | 0
CCCC=CCON=Cc1ccccc1Oc1nc(OC)cc(OC)n1 | 0
COc1cc(OC)nc(Oc2ccccc2C=NOCCc2ccccc2)n1 | 0
C#CCON=Cc1ccccc1Oc1nc(OC)cc(OC)n1 | 0
COc1cc(OC)nc(Oc2ccccc2C=NOC(C)C)n1 | 0
C=C(C)CON=Cc1ccccc1Oc1nc(OC)cc(OC)n1 | 0

What measured Inhibitory activity (%) Pea goes with "COc1cc(OC)nc(Oc2ccccc2C=NOCc2ccccc2)n1" ?
0

What measured Inhibitory activity (%) Pea goes with "COc1cc(OC)nc(Oc2ccccc2C=NOCC=Cc2ccc(Cl)c(Cl)c2)n1" ?
0

What measured Inhibitory activity (%) Pea goes with "COc1cc(OC)nc(Oc2ccccc2C=NOCC=Cc2ccc(C(F)(F)F)cc2)n1" ?
10

What measured Inhibitory activity (%) Pea goes with "COc1cc(OC)nc(Oc2ccccc2C=NOCC#Cc2ccccc2)n1" ?
0

What measured Inhibitory activity (%) Pea goes with "CC=CCON=Cc1ccccc1Oc1nc(OC)cc(OC)n1" ?
0

What measured Inhibitory activity (%) Pea goes with "COc1cc(OC)nc(Oc2ccccc2C=NOCC=CCl)n1" ?
0

What measured Inhibitory activity (%) Pea goes with "COc1cc(OC)nc(Oc2ccccc2C=NOCC=Cc2ccc(Cl)cc2)n1" ?
8

What measured Inhibitory activity (%) Pea goes with "COc1cc(OC)nc(Oc2ccccc2C=NOCC=Cc2ccccc2C(F)(F)F)n1" ?
0

What measured Inhibitory activity (%) Pea goes with "COc1cc(OC)nc(Oc2ccccc2C=NOCc2cccc3ccccc23)n1" ?
0

What measured Inhibitory activity (%) Pea goes with "COc1cc(OC)nc(Oc2ccccc2C=NOCc2ccccc2Cl)n1" ?
0

What measured Inhibitory activity (%) Pea goes with "C=CCON=Cc1ccccc1Oc1nc(OC)cc(OC)n1" ?
0

What measured Inhibitory activity (%) Pea goes with "CON=Cc1ccccc1Oc1nc(OC)cc(OC)n1" ?
3
